From: PubChem BioAssay

Measured composite z-score, listed per entry.
- ASSAY_EXPLANATION: small molecules captured by biotinylated probe aFGF10 – biochemical, small-molecule microarray, fluorescence 635/667, stem cell growth factor project, primary screen (AID 1071);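 also: score merges 667 nm spot intensity and signal to noise from triplicate slides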
- EXPERIMENTAL_SETUP: higher = more signal

[
  {
    "COMPOUND": "C=CCC(OC(C)=O)[C@@H]1[C@@H](N(Cc2cccc3ccccc23)C(=O)Cc2ccc(F)cc2)c2cc(OCCCO)ccc2N1C(=O)c1ccc2ccccc2c1 (some centres undefined)",
    "composite z-score": 0.0597
  },
  {
    "COMPOUND": "O=C1C2C=CC(C(O)c3ccco3)N(Nc3ccccc3F)C2C(=O)N1c1ccccc1 (centres undefined)",
    "composite z-score": 0.458
  },
  {
    "COMPOUND": "COc1ccc(CCNC(=O)[C@@H]2c3ccccc3C(=O)N(C3CCCCC3)[C@H]2c2ccc(CO)cc2)cc1",
    "composite z-score": 0.329
  },
  {
    "COMPOUND": "COc1cc2c(cc1O)C(c1cccs1)N(Cc1cc3c(cc1Br)OCO3)CC2 (centres undefined)",
    "composite z-score": 1.3
  }
]

###

- TARGET_UNDER_TEST: Epidermal growth factor receptor (Homo sapiens)
- ASSAY_EXPLANATION: compounds binding epidermal growth factor receptor – biochemical, small-molecule microarray, 635 nm fluorescence, primary screen (AID 1104);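 also: score merges 667 nm emission intensity with spot signal to noise over triplicate slides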
- EXPERIMENTAL_SETUP: EGFR binding, higher = more signal
MEASURED_QUANTITY: composite z-score

[
  {
    "COMPOUND": "COCCOC(=O)N1C(=O)[C@@]2(c3ccccc31)[C@H](c1ccc(O)cc1)N1[C@H](c3ccccc3)[C@H](c3ccccc3)OC(=O)[C@H]1[C@@H]2C(=O)N1CCN(c2ncccn2)CC1",
    "VALUE_REPORTED": 0.194
  },
  {
    "COMPOUND": "COc1ccc(C#Cc2ccc3c(c2)[C@]2(C(=O)N3)[C@H](c3ccc(OCCO)cc3)N3[C@H](c4ccccc4)[C@H](c4ccccc4)OC(=O)[C@H]3[C@@H]2C(=O)NC[C@H](O)c2ccccc2)cc1",
    "VALUE_REPORTED": 0.342
  },
  {
    "COMPOUND": "C=CCC(OC(C)=O)[C@@H]1[C@@H](N(Cc2ccc(-c3ccccc3)cc2)C(=O)c2ccc(-c3ccccc3)cc2)c2cc(OCCCO)ccc2N1C(=O)c1ccc2ccccc2c1 (some centres not stated)",
    "VALUE_REPORTED": -0.175
  },
  {
    "COMPOUND": "CC(C)C(O)C1C=CC2C(=O)N(c3ccccc3)C(=O)C2N1Nc1ccccc1 (configuration not stated)",
    "VALUE_REPORTED": 0.34
  },
  {
    "COMPOUND": "C#CCN(Cc1ccccc1Br)[C@H](/C=C/c1ccccc1)[C@@H](O)Cc1ccccc1",
    "VALUE_REPORTED": -1.45
  },
  {
    "COMPOUND": "C=CCOC(=O)[C@@]1(Cc2ccccc2)C[C@H]2CO[C@H](c3ccc(OC)cc3)N2C1=O",
    "VALUE_REPORTED": 0.201
  },
  {
    "COMPOUND": "CCCN1C(=O)[C@@]2(Cc3ccccc31)N=C(c1ccc(OCCCO)cc1)O[C@H]2c1ccccc1",
    "VALUE_REPORTED": -0.286
  }
]

###

- TARGET_UNDER_TEST: Concanavalin-A (Canavalia ensiformis) (UniProt P02866)
- Sequence (P02866 whole entry, looked up): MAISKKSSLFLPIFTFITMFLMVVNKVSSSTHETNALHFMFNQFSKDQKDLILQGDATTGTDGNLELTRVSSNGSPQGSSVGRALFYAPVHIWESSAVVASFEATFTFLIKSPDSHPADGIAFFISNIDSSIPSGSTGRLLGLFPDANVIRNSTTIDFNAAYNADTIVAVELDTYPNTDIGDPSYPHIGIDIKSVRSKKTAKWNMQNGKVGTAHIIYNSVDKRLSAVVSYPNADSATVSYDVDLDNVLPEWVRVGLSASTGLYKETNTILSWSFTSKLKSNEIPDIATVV
- ASSAY_EXPLANATION: compounds binding concanavalin A lectin – biochemical, small-molecule microarray, Alexa647 label, 635 nm, artefact control for SMM control protein annotation, primary screen (AID 1127);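 also: z combines 667 nm emission intensity with signal-to-noise across three replicate slides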
- EXPERIMENTAL_SETUP: ConA-A647 binding fluorescence, higher = more signal
Response key: T means composite z-score >= 1; F means composite z-score < 1.

[
  {
    "COMPOUND": "C=C(/C(=C/C[C@H](OC(C)=O)c1ccc(CO)o1)c1cnc2ccccc2c1)C(C)C",
    "TARGET_UNDER_TEST": "Concanavalin-A (Canavalia ensiformis) (UniProt P02866)",
    "GROUP": "T"
  },
  {
    "COMPOUND": "COc1ccc(CCNC(=O)[C@@H]2c3ccccc3C(=O)N(C3CCCCC3)[C@H]2c2ccc(CO)cc2)cc1",
    "TARGET_UNDER_TEST": "Concanavalin-A (Canavalia ensiformis) (UniProt P02866)",
    "GROUP": "F"
  },
  {
    "COMPOUND": "CC(C)N1C(=O)C[C@@](C(=O)NC2CC2)(c2ccc([N+](=O)[O-])cc2)[C@H]1c1ccc(CO)cc1",
    "TARGET_UNDER_TEST": "Concanavalin-A (Canavalia ensiformis) (UniProt P02866)",
    "GROUP": "F"
  },
  {
    "COMPOUND": "COCCOC(=O)N1C(=O)[C@@]2(c3cc(C#CC4(O)CCCCCC4)ccc31)[C@H](c1ccc(O)cc1)N1[C@H](c3ccccc3)[C@H](c3ccccc3)OC(=O)[C@H]1[C@@H]2C(=O)N1CCN(c2ncccn2)CC1",
    "TARGET_UNDER_TEST": "Concanavalin-A (Canavalia ensiformis) (UniProt P02866)",
    "GROUP": "T"
  },
  {
    "COMPOUND": "COCCOC(=O)N1C(=O)[C@@]2(c3cc(C#CC4=CCCCC4)ccc31)[C@H](c1ccccc1OCCO)N1[C@H](c3ccccc3)[C@H](c3ccccc3)OC(=O)[C@H]1[C@@H]2C(=O)NC[C@H](O)c1ccccc1",
    "TARGET_UNDER_TEST": "Concanavalin-A (Canavalia ensiformis) (UniProt P02866)",
    "GROUP": "T"
  },
  {
    "COMPOUND": "C[C@@H]1NC(=O)[C@@H](Cc2ccccc2)NC(=O)[C@@]23C(=O)N[C@@H](Cc4ccccc4)C2[C@H](C)[C@@]2(C)O[C@H]2C3/C=C/C/C=C\\CNC1=O (stereo partly drawn)",
    "TARGET_UNDER_TEST": "Concanavalin-A (Canavalia ensiformis) (UniProt P02866)",
    "GROUP": "F"
  },
  {
    "COMPOUND": "CC(C)N1C(=O)C[C@@](C(=O)O)(c2ccc([N+](=O)[O-])cc2)[C@H]1c1ccc(CO)cc1",
    "TARGET_UNDER_TEST": "Concanavalin-A (Canavalia ensiformis) (UniProt P02866)",
    "GROUP": "F"
  },
  {
    "COMPOUND": "C=CCC(OC(C)=O)[C@@H]1[C@@H](N(Cc2cccc3ccccc23)C(=O)Cc2ccc(OC)cc2)c2cc(OCCCO)ccc2N1C(=O)c1ccc(-c2ccccc2)cc1 (stereo partly drawn)",
    "TARGET_UNDER_TEST": "Concanavalin-A (Canavalia ensiformis) (UniProt P02866)",
    "GROUP": "F"
  },
  {
    "COMPOUND": "CCCC=C(CCC)[C@@H](NS(=O)(=O)CC12CCC(CC1=O)C2(C)C)c1ccc(C(=O)OC)cc1 (stereo partly drawn)",
    "TARGET_UNDER_TEST": "Concanavalin-A (Canavalia ensiformis) (UniProt P02866)",
    "GROUP": "F"
  },
  {
    "COMPOUND": "COC(=O)[C@]1(CCS(=O)(=O)c2ccccc2)N=C(c2ccc(OCCCO)cc2)O[C@@H]1c1ccccc1N=[N+]=[N-]",
    "TARGET_UNDER_TEST": "Concanavalin-A (Canavalia ensiformis) (UniProt P02866)",
    "GROUP": "T"
  },
  {
    "COMPOUND": "CCCCN1CC=CC23O[C@@H]4/C=C\\CCC(C)OC(=O)C4[C@H]2C(=O)N(CCCO)[C@@H]3C1=O (stereo partly drawn)",
    "TARGET_UNDER_TEST": "Concanavalin-A (Canavalia ensiformis) (UniProt P02866)",
    "GROUP": "F"
  },
  {
    "COMPOUND": "COCCOC(=O)N1C(=O)[C@@]2(c3cc(C#CC4(O)CCCCCC4)ccc31)[C@H](C(=O)Nc1nc3ccccc3s1)[C@H]1C(=O)O[C@H](c3ccccc3)[C@H](c3ccccc3)N1[C@@H]2c1ccc(O)cc1",
    "TARGET_UNDER_TEST": "Concanavalin-A (Canavalia ensiformis) (UniProt P02866)",
    "GROUP": "T"
  }
]

###

- ASSAY_EXPLANATION: small molecules captured by biotinylated probe aFST – biochemical, small-molecule microarray, fluorescence 635/667, stem cell growth factor project, primary screen (AID 1086);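 also: score merges 667 nm fluorescence with signal-to-noise of each printed compound spot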
- EXPERIMENTAL_SETUP: higher = more signal
Measured composite z-score, listed per entry.
MEASURED_QUANTITY: composite z-score

[
  {
    "SMILES_NOTATION": "CC(C)NC(=O)[C@@]1(C)c2ccccc2C(=O)N(Cc2ccc(OC(F)(F)F)cc2)[C@H]1c1ccc(CO)cc1",
    "MEASURED_QUANTITY": "composite z-score",
    "VALUE_REPORTED": -0.55
  },
  {
    "SMILES_NOTATION": "CC(C)[Si](C#CCCCC#N)(O[C@H](c1ccccc1)c1cn(Cc2ccccc2)nn1)C(C)C",
    "MEASURED_QUANTITY": "composite z-score",
    "VALUE_REPORTED": 0.775
  },
  {
    "SMILES_NOTATION": "CC(C)N1C(=O)c2ccccc2[C@@H](C(=O)NCCN2CCOCC2)[C@@H]1c1ccc(CO)cc1",
    "MEASURED_QUANTITY": "composite z-score",
    "VALUE_REPORTED": -0.727
  },
  {
    "SMILES_NOTATION": "CCCN1C(=O)[C@]2(Cc3ccccc31)N=C(c1ccc(OCCCO)cc1)O[C@@H]2c1ccccc1",
    "MEASURED_QUANTITY": "composite z-score",
    "VALUE_REPORTED": 0.311
  }
]
